- Protocol: Cytotoxicity against hamster AG17-1 cells assessed as reduction in cell viability after 72 hrs by MTT assay
- Assay type: toxicity, cell-based, Cricetulus griseus
- Run conditions: Chinese hamster
Exercise: state measured IC50 at 72 h for each of the molecules provided.
Field: numeric (µM). Do not append units.

Asked: Hello, please tell me recorded IC50 at 72 h for this one: Cc1c(C)c2c(c(C)c1O)CCC(C)(C(=O)NC1CC(C)(C)N([O])C(C)(C)C1)O2 (configuration not stated)
Given back: 186

Asked: Give recorded IC50 at 72 h. Cc1c(C)c2c(c(C)c1OC(=O)CCC(=O)NC1CC(C)(C)N([O])C1(C)C)CCC(C)(C(=O)NC1CC(C)(C)N([O])C1(C)C)O2 (configuration not stated)
Given back: 166

Asked: Consider the molecule Cc1c(C)c2c(c(C)c1OC(=O)CCC(=O)NC1CC(C)(C)N([O])C(C)(C)C1)CCC(C)(C(=O)NC1CC(C)(C)N([O])C(C)(C)C1)O2 (configuration not stated) . State its measured IC50 at 72 h.
Given back: 54
